meta.source: patent US20260356804A1

Subject Of Test: human Nav1.8/b3 (Homo sapiens, UniProt Q9Y5Y9)
Construct: expressed in transfected cells; host or cells: CHO
Sequence (Q9Y5Y9 whole entry): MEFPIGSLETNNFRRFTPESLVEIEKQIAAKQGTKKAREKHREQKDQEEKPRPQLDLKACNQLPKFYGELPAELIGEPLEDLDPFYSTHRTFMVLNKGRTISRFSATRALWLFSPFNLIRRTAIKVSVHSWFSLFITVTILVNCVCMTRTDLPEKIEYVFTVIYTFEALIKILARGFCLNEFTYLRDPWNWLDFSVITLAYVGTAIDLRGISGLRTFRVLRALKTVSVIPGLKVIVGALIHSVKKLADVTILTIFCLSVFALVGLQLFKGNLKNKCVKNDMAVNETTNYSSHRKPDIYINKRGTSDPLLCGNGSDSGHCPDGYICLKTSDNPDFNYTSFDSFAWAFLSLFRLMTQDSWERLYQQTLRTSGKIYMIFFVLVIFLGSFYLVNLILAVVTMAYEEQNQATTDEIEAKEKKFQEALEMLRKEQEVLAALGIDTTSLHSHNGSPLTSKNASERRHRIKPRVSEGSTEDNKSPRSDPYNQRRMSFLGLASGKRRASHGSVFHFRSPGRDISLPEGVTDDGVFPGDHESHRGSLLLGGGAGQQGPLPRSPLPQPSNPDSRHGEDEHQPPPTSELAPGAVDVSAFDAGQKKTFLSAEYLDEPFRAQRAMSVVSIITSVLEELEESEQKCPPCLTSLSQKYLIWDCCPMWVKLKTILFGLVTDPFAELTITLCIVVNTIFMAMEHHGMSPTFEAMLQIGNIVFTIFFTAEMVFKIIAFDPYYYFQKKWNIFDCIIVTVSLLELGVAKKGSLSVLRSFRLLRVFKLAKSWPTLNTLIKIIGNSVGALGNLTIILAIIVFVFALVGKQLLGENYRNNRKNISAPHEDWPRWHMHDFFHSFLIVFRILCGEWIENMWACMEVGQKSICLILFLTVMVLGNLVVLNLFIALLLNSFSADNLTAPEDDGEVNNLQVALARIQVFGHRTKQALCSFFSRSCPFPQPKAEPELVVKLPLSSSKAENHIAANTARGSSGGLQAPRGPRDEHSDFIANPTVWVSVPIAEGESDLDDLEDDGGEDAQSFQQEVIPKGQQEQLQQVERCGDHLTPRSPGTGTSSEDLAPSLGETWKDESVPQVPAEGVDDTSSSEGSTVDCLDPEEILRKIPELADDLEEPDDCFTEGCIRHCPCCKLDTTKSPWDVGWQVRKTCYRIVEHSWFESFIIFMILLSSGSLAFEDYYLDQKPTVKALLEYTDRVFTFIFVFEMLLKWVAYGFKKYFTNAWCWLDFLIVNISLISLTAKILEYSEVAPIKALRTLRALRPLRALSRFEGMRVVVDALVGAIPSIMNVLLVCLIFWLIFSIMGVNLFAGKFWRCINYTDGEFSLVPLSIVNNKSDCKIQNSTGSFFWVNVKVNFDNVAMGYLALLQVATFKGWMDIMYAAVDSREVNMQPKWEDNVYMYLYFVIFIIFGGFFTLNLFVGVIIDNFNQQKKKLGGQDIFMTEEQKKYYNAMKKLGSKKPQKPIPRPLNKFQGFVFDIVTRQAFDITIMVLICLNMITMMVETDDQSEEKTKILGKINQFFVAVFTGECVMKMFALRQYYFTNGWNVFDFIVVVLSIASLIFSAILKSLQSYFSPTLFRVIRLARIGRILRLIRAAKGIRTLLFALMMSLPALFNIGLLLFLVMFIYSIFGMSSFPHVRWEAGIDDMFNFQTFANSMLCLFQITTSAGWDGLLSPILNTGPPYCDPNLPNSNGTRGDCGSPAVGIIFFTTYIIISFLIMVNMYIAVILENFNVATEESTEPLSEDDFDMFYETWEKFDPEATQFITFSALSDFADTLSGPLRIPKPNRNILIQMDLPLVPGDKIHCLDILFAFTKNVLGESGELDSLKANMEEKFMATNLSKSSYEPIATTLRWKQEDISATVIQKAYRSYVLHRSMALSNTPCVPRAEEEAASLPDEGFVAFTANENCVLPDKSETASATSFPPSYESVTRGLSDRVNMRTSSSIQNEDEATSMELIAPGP
Sequence (Q9NY72 23-215 partner): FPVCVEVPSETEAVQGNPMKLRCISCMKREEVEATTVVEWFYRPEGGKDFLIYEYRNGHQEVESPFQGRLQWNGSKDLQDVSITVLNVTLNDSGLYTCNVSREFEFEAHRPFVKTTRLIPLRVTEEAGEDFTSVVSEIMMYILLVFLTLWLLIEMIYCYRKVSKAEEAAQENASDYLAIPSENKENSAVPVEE
Assay Notes: Compound Profiling Human NaV1.8/β3 Cell Line—SyncroPatch384PE Assay (automated patch clamp, stably transfected CHO cells)
Type: cell-based
Settings: P1 (IC50, resting state block), P1 measurement, resting state block; Nav1.8/b3 CHO cells, holding potential −120 mV; first set of compounds
# reported IC50; entries follow

Consider the reported IC50 for these compounds:
Compound | IC50
Cc1nc(F)ccc1Oc1cc(C(F)(F)F)c(Cl)c(F)c1C(=O)Nc1cccc([S@](C)(=N)=O)c1 [Example 43A] | < 5 nM
Cc1nc(F)ccc1Oc1cc(C(F)(F)F)cc(F)c1C(=O)Nc1ccnc([S@@](C)(=N)=O)c1 [Example 33A] | 5 to 50 nM
Cc1nc(F)ccc1Oc1cc(C2CC2)c(C(F)(F)F)cc1C(=O)Nc1cccc([S@](C)(=N)=O)c1 [Example 67A] | < 5 nM
Cc1nc(F)ccc1Oc1ccc(C(F)(F)F)c(F)c1C(=O)Nc1cccc([S@](C)(=N)=O)c1 [Example 4A] | < 5 nM
Cc1nc(F)ccc1Oc1cc(C(F)(F)F)c(Cl)c(C)c1C(=O)Nc1cccc([S@](C)(=N)=O)c1 [Example 10A] | < 5 nM
Cc1nc(F)ccc1Oc1cc(C(F)(F)F)cc(F)c1C(=O)Nc1ccc(C(N)=O)cc1 [Example 36A] | 5 to 50 nM

// moving on: another record for IC50
Qu. Form field: reported IC50 of Cc1nc(F)ccc1Oc1cc(C2CC2)c(C(F)(F)F)cc1C(=O)Nc1ccnc([S@](C)(=N)=O)c1 [Example 58A]
Ans. < 5 nM
